System: IL-6
Experiment: IL-6 secretion inhibition in LPS-treated THP-1 cells (ELISA)
Assay type: cell-based
Conditions: Homo sapiens, compound 0.5 μM, LPS 500 ng/ml, 24 hours, read-out: THP1/IL6 (% inhib)
Outcome measure: inhibition at 0.5 µM (%)

* CCNc1cc(Nc2ccc(C(=O)N3CCOCC3)c3c2OCCO3)nc2[nH]cc(C(F)(F)F)c12 | 32.7
* CNc1cc(Nc2ccc(P3(=O)CCN(C4COC4)CC3)cc2OC)nc2[nH]cc(C(F)(F)F)c12 | 29.1
* CCNc1cc(Nc2ccc(C(=O)N3CCC(N(C)C)CC3)c3c2OCC3)nc2[nH]cc(C(F)(F)F)c12 | 60.3

----------
Target: human GST-DYRK1A (full length) (Homo sapiens)
pIC50: −log10 of the molar value. Structures can show the parent of a compound that is named as a salt.
Collected pIC50 values appear next to each entry.
Outcome measure: pIC50

* COCCNc1cc(Nc2ccc(S(C)(=O)=O)cc2OC)nc2[nH]cc(Cl)c12 | 6.00 to 6.52
* CS(=O)(=O)CCNc1cc(Nc2ccc(C(=O)N3CCOCC3)c3c2OCCO3)nc2[nH]cc(C(F)(F)F)c12 | > 7.00
* CCNc1cc(Nc2ccc(S(=O)(=O)N3CCC(N4CCOCC4)CC3)cc2OC)nc2[nH]cc(C#N)c12 | 6.52 to 7.00
* COc1cc(S(C)(=O)=O)ccc1Nc1cc(NC2CCCCC2)c2c(C(F)(F)F)c[nH]c2n1 | 6.00 to 6.52
* CNc1cc(Nc2ccc(S(=O)(=O)N3CCC(N4CCOCC4)CC3)cc2OC)nc2[nH]ccc12 | 6.00 to 6.52
* COC[C@@H](C)Nc1cc(Nc2ccc(C(=O)N3CCOCC3)c3c2OCCO3)nc2[nH]cc(C(F)(F)F)c12 | 6.52 to 7.00
* CC(C)Nc1cc(Nc2ccc(C(=O)N3CCOCC3)c3c2OCCO3)nc2[nH]cc(Cl)c12 | 6.00 to 6.52
* CCCCNc1cc(Nc2ccc(C(=O)N3CCC(N4CCOCC4)CC3)c3c2OCCO3)nc2[nH]cc(C(F)(F)F)c12 | 6.00 to 6.52
* CCNc1cc(Nc2ccc(P3(=O)CCN(C4CCOCC4)CC3)cc2OC)nc2[nH]cc(C(F)(F)F)c12 | 6.52 to 7.00
* CCCNc1cc(Nc2ccc(C(=O)N3CCC(N4CCOCC4)CC3)c3c2OCCO3)nc2[nH]cc(C#N)c12 | > 7.00
* CCNc1cc(Nc2ccc(S(C)(=O)=O)cc2OC)nc2[nH]cc(Cl)c12 | 6.00 to 6.52
* COc1cc(S(C)(=O)=O)ccc1Nc1cc(NC2CCCCC2)c2c(Cl)c[nH]c2n1 | 6.00 to 6.52
* C=CCNc1cc(Nc2ccc(C(=O)N3CCC(N4CCOCC4)CC3)c3c2OCC3)nc2[nH]cc(C(F)(F)F)c12 | > 7.00
* COc1cc(S(=O)(=O)N2CCOCC2)ccc1Nc1cc(NC2CCC2)c2c(Cl)c[nH]c2n1 | 6.00 to 6.52
* CCNc1cc(Nc2ccc(C(=O)N3CCC(N4CCOCC4)CC3)c3c2OCO3)nc2[nH]cc(C#N)c12 | > 7.00
* O=C(c1ccc(Nc2cc(NC3CCC3)c3c(C(F)(F)F)c[nH]c3n2)c2c1OCCO2)N1CCOCC1 [Example 175, trifluoroacetate] | 6.00 to 6.52
* CNc1cc(Nc2ccc(P3(=O)CCN(C4COC4)CC3)cc2OC)nc2[nH]cc(C(F)(F)F)c12 | > 7.00
* CNc1cc(Nc2ccc(S(=O)(=O)N3CCOCC3)cc2OC)nc2[nH]cc(Cl)c12 | 6.00 to 6.52
* CCNc1cc(Nc2ccc(C(=O)N3CCC(N4CCN(C5CC5)CC4)CC3)c3c2OCC3)nc2[nH]cc(C(F)(F)F)c12 | > 7.00
* CNc1cc(Nc2ccc(S(=O)(=O)N3CCC(N4CCOCC4)CC3)c3c2OCCO3)nc2[nH]cc(C(F)(F)F)c12 | 6.52 to 7.00
* CCNc1cc(Nc2ccc(C(=O)N3CCC(N4CCOCC4)CC3)c3c2OCC3)nc2[nH]cc(C(F)(F)F)c12 | > 7.00
* CCNc1cc(Nc2ccc(C(=O)N3CCC(N4CCOCC4)CC3)c3c2OCCO3)nc2[nH]cc(C#N)c12 | 6.00 to 6.52
* N#Cc1c[nH]c2nc(Nc3ccc(C(=O)N4CCOCC4)c4c3OCCO4)cc(NC3CCCCC3)c12 | 6.00 to 6.52
* COc1cc(S(=O)(=O)N2CCC(N3CCOCC3)CC2)ccc1Nc1cc(NCCS(C)(=O)=O)c2c(C#N)c[nH]c2n1 | > 7.00
* N#Cc1c[nH]c2nc(Nc3ccc(C(=O)N4CCOCC4)c4c3OCCO4)cc(NC3CCC3)c12 | 6.00 to 6.52
* CNc1cc(Nc2ccc(S(C)(=O)=O)cc2OC)nc2[nH]cc(C#N)c12 | 6.00 to 6.52
* CNc1cc(Nc2ccc(S(=O)(=O)N3CCOCC3)c3c2OCCO3)nc2[nH]cc(C(F)(F)F)c12 | 6.52 to 7.00
* COc1cc(P2(=O)CCN(C3CC3)CC2)ccc1Nc1cc(NC2CCC2)c2c(C(F)(F)F)c[nH]c2n1 | 6.00 to 6.52

----------
Target: LRRK2 (G2019S) (Homo sapiens, UniProt Q5S007, G2019S)
Sequence (Q5S007 970-2527 G2019S limits assumed): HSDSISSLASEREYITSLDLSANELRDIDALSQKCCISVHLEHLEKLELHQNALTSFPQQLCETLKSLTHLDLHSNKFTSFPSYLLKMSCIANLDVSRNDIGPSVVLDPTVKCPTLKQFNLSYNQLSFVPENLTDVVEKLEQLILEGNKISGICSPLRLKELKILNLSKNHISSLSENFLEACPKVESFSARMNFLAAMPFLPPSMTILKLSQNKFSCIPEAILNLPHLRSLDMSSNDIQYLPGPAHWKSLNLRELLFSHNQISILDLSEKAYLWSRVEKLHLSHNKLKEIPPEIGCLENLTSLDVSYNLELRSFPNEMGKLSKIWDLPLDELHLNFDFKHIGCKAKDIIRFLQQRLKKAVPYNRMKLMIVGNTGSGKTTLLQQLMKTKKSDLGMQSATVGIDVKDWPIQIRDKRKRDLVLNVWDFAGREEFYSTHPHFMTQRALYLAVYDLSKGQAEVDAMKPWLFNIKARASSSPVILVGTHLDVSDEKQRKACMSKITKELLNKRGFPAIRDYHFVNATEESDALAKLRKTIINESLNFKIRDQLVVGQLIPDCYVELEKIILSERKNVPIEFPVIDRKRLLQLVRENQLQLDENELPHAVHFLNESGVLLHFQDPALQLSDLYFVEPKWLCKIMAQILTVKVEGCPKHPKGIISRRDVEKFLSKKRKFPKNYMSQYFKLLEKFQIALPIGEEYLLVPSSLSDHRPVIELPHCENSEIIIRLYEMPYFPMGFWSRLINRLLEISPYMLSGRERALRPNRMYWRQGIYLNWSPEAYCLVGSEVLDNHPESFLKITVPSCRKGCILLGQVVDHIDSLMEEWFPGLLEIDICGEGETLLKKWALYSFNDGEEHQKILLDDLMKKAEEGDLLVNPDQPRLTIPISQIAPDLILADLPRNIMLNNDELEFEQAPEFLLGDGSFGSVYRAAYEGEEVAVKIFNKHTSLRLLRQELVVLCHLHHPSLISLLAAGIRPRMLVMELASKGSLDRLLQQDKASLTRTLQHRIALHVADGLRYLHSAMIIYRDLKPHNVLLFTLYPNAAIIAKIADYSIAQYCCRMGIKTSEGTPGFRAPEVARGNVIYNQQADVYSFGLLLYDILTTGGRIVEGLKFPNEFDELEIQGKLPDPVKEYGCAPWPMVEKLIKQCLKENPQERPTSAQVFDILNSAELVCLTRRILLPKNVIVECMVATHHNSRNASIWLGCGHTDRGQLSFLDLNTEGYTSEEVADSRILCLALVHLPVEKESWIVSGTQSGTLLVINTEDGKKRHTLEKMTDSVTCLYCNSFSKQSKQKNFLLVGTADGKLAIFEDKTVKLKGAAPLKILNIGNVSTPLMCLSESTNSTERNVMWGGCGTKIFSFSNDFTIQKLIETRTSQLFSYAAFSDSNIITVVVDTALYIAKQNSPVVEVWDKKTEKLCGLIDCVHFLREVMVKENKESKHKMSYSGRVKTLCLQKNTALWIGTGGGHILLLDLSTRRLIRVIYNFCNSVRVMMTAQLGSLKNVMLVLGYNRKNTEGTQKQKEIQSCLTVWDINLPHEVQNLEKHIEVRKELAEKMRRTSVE
Assay: LRRK2 G2019S enzyme inhibition, ADP-Glo kinase assay
Experimental: In order to evaluate the inhibitory activity of the compounds according to the present invention on LRRK2, LRRK2 (G2019S), DYRK1, CLK1 and TTK kinases, the following experiment was performed. Example compounds were reacted with the purified human LRRK2 G2019S (L10-12GG, SignalChem) enzyme to evaluate the enzyme inhibitory ability as follows. […]
Counter-ions that a name gives are not always drawn.
Outcome measure: IC50

* C=CCN1CCN(C(=O)c2ccc(Nc3cc(NCC)c4c(C(F)(F)F)c[nH]c4n3)c3c2CCO3)CC1 [Example 252] | < 100 nM
* CNc1cc(Nc2ccc(C(=O)N3CCOCC3)c3c2OCCO3)nc2[nH]cc(Cl)c12 [Example 56, trifluoroacetate] | < 100 nM
* CCCNc1cc(Nc2ccc(S(=O)(=O)N3CCOCC3)cc2OC)nc2[nH]cc(Cl)c12 [Example 66] | 301 to 1000 nM
* COc1cc(S(=O)(=O)N2CCC(N3CCOCC3)CC2)ccc1Nc1cc(NCC(C)C)c2cc[nH]c2n1 [Example 21] | < 100 nM

----------
Target: LRRK2 (G2019S) (Homo sapiens, UniProt Q5S007, G2019S)
Assay: LRRK2 G2019S enzyme inhibition, ADP-Glo kinase assay
Outcome measure: IC50

* CNc1cc(Nc2ccc(S(=O)(=O)N3CCC(N4CCOCC4)CC3)c3c2OCCO3)nc2[nH]cc(C(F)(F)F)c12 | < 100 nM
* CNc1cc(Nc2ccc(S(=O)(=O)N3CCOCC3)cc2OC)nc2[nH]cc(C(F)(F)F)c12 | 301 to 1000 nM
* COc1cc(S(=O)(=O)N2CCC(N3CCOCC3)CC2)ccc1Nc1cc(NC2CC2)c2cc[nH]c2n1 | < 100 nM
* COc1cc(S(=O)(=O)N2CCOCC2)ccc1Nc1cc(NC(C)C)c2cc[nH]c2n1 | 301 to 1000 nM
* CCNc1cc(Nc2ccc(S(=O)(=O)N3CCOCC3)cc2OC)nc2[nH]cc(C#N)c12 | 101 to 300 nM
* CCNc1cc(Nc2ccc(S(=O)(=O)N3CCC(N4CCOCC4)CC3)cc2OC)nc2[nH]ccc12 | < 100 nM
* COc1cc(S(C)(=O)=O)ccc1Nc1cc(NC2CCCCC2)c2cc[nH]c2n1 | 301 to 1000 nM
* COc1cc(S(=O)(=O)N2CCC(N3CCOCC3)CC2)ccc1Nc1cc(NC(C)C)c2c(Cl)c[nH]c2n1 | < 100 nM
* COc1cc(S(=O)(=O)N2CCC(N3CCOCC3)CC2)ccc1Nc1cc(NC2CCCCC2)c2cc[nH]c2n1 | 301 to 1000 nM
* N#Cc1c[nH]c2nc(Nc3ccc(C(=O)N4CCC(N5CCOCC5)CC4)c4c3OCCO4)cc(NC3CC3)c12 | < 100 nM
* COc1cc(S(C)(=O)=O)ccc1Nc1cc(NC(C)C)c2cc[nH]c2n1 | 301 to 1000 nM
* COc1cc(S(C)(=O)=O)ccc1Nc1cc(NC2CCCC2)c2c(C#N)c[nH]c2n1 | 301 to 1000 nM
* CS(=O)(=O)CCNc1cc(Nc2ccc(C(=O)N3CCOCC3)c3c2OCCO3)nc2[nH]cc(C#N)c12 | < 100 nM
* CCNc1cc(Nc2cc(F)c(S(=O)(=O)N3CCC(N4CCOCC4)CC3)cc2OC)nc2[nH]cc(C(F)(F)F)c12 | 101 to 300 nM
* COc1cc(S(C)(=O)=O)ccc1Nc1cc(NCC(C)C)c2c(C(F)(F)F)c[nH]c2n1 | 301 to 1000 nM
* COCCNc1cc(Nc2ccc(S(=O)(=O)N3CCOCC3)cc2OC)nc2[nH]cc(C(F)(F)F)c12 | 301 to 1000 nM
* COc1cc(S(=O)(=O)N2CCC(N3CCOCC3)CC2)ccc1Nc1cc(C2CC2)c2c(C#N)c[nH]c2n1 | < 100 nM
* CCNc1cc(Nc2ccc(C(=O)N3OCC[C@H]3c3cc(F)cc(F)c3)c3c2OCC3)nc2[nH]cc(C(F)(F)F)c12 | 301 to 1000 nM
* CNc1cc(Nc2ccc(S(C)(=O)=O)cc2OC)nc2[nH]cc(C(F)(F)F)c12 | 301 to 1000 nM
* O=C(c1ccc(Nc2cc(C3CC3)c3c(C(F)(F)F)c[nH]c3n2)c2c1OCCO2)N1CCC(N2CCOCC2)CC1 | 101 to 300 nM
